# SYSTEM: Voltage-gated potassium channel, KQT; KCNQ2(Kv7.2)/KCNQ3(Kv7.3) (Homo sapiens, UniProt O43525+O43526)
# Sequence (O43526 whole entry): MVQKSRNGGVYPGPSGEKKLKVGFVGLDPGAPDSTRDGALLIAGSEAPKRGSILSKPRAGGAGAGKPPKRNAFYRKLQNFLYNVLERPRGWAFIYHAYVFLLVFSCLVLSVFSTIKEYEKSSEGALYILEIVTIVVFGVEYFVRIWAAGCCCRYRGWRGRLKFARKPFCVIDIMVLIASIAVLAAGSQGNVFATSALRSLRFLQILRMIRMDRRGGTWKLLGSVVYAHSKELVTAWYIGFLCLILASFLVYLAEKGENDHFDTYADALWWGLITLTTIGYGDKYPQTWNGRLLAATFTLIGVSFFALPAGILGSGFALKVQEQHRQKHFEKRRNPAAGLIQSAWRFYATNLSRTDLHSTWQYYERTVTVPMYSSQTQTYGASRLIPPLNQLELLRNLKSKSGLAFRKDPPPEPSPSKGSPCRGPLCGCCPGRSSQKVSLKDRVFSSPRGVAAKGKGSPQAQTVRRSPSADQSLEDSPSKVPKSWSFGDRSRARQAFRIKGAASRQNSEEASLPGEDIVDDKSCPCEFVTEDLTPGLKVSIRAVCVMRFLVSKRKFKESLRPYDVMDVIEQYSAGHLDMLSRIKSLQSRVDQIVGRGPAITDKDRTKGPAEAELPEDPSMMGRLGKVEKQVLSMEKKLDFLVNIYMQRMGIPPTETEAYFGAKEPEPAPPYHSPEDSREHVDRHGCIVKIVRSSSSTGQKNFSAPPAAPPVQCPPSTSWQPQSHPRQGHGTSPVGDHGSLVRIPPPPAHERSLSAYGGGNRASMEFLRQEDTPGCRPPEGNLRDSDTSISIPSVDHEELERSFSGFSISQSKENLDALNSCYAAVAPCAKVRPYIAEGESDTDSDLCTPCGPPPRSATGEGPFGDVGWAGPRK
# Sequence (O43525 whole entry): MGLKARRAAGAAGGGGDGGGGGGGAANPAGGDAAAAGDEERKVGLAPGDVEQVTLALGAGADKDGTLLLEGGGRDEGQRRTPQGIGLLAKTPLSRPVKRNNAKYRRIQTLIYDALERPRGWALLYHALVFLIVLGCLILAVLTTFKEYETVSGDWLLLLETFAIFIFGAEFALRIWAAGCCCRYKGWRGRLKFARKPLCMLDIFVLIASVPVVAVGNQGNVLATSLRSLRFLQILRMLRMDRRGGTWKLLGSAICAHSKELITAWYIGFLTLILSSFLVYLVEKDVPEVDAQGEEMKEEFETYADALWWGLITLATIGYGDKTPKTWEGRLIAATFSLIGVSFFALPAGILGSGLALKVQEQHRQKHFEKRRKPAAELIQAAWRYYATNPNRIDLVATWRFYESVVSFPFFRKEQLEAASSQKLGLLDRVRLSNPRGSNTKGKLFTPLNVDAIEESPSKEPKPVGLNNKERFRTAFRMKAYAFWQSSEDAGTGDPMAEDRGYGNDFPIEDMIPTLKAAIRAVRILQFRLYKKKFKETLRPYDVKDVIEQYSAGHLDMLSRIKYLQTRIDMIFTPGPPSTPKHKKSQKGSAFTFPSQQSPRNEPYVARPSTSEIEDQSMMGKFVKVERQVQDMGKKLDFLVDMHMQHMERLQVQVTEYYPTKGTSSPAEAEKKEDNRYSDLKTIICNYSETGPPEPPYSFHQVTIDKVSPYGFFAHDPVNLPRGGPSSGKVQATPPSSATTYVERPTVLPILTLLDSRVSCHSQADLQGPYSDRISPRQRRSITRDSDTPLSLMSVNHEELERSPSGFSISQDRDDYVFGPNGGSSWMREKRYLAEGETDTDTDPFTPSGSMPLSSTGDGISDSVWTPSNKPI
# ASSAY_OVERVIEW: Inhibition of KCNQ2/Q3
ATTRIBUTE_MEASURED: IC50

O=C(NCc1cccnc1OCC(F)(F)F)c1cncc(-c2ccc(Cl)cc2)c1 = > 10 µM

Let us move to another entry and its IC50.
// query Query: IC50; subject: `Cc1cc(C)cc(NC(=O)c2cncc(-c3ccc(C#N)cc3)c2)c1`
// result > 10 µM

----------
# ASSAY_OVERVIEW: Intrinsic clearance in rat microsomes after 1 hr
# Format: ADME, Microsome
ATTRIBUTE_MEASURED: microsomal CLint (µL/min/mg)
Give your result in µL/min/mg as a bare value.

Cc1cc(C)cc(NC(=O)c2cncc(-c3ccc(C#N)cc3)c2)c1 = 270

Attention now shifts to the item below.
// query Endpoint output: microsomal CLint of `O=C(NCc1cccnc1OCC(F)(F)F)c1cncc(-c2ccc(Cl)cc2)c1` . Value?
// result 68

----------
# Species on record: Homo sapiens
# ASSAY_OVERVIEW: Selectivity ratio of IC50 for human ERG to IC50 for human Nav1.8
Listed compounds paired with reported Ratio IC50

Cc1cc(C)cc(NC(=O)c2nsc(-c3ccc(OC(F)(F)F)cc3)n2)c1 = > 30
Cc1cc(C)cc(NC(=O)c2cncc(-c3ccc(OC(F)(F)F)cc3)c2)c1 = > 30

// query Returns the measured Ratio IC50 for the input compound. Input: `Cc1cc(C)cc(NC(=O)c2csc(-c3ccc(OC(F)(F)F)cc3)n2)c1`
// result > 30

----------
Measured pIC50 values are reported for all entries that follow.
# SYSTEM: Transient receptor potential cation channel subfamily V member 1 (Homo sapiens, UniProt Q8NER1)
pIC50: −log10 of the molar value.

Cc1cc(C)cc(NC(=O)c2cncc(-c3ccc(C#N)cc3)c2)c1 = < 5.00

Read the next record carefully.
// query Looking for the measured pIC50 of `O=C(NCc1cccnc1OCC(F)(F)F)c1cncc(-c2ccc(Cl)cc2)c1` , can you help?
// result < 5.00

----------
# SYSTEM: Voltage-dependent N-type calcium channel subunit alpha-1B (Homo sapiens)
# ASSAY_OVERVIEW: Inhibition of CaV2.2
pIC50: −log10 of the molar value.
Property: pIC50; scope: individual compounds

// query Query: pIC50; subject: `O=C(NCc1cccnc1OCC(F)(F)F)c1cncc(-c2ccc(Cl)cc2)c1`
// result < 5.00

// query Try this compound next: `Cc1cc(C)cc(NC(=O)c2cncc(-c3ccc(C#N)cc3)c2)c1`
// result < 5.00

----------
Entries and their measured microsomal CLint follow.
# ASSAY_OVERVIEW: Intrinsic clearance in human microsomes
# Type: ADME, Microsome

Cc1cc(C)cc(NC(=O)c2csc(-c3ccc(OC(F)(F)F)cc3)n2)c1 = > 300 µL/min/mg

Attention now turns to another entry.
// query I have this molecule here, `Cc1cc(C)cc(NC(=O)c2nsc(-c3ccc(OC(F)(F)F)cc3)n2)c1` , and I need its recorded microsomal CLint.
// result > 300 µL/min/mg

----------
# SYSTEM: Voltage-gated inwardly rectifying potassium channel KCNH2 (Homo sapiens)
# Sequence (Q12809 whole entry): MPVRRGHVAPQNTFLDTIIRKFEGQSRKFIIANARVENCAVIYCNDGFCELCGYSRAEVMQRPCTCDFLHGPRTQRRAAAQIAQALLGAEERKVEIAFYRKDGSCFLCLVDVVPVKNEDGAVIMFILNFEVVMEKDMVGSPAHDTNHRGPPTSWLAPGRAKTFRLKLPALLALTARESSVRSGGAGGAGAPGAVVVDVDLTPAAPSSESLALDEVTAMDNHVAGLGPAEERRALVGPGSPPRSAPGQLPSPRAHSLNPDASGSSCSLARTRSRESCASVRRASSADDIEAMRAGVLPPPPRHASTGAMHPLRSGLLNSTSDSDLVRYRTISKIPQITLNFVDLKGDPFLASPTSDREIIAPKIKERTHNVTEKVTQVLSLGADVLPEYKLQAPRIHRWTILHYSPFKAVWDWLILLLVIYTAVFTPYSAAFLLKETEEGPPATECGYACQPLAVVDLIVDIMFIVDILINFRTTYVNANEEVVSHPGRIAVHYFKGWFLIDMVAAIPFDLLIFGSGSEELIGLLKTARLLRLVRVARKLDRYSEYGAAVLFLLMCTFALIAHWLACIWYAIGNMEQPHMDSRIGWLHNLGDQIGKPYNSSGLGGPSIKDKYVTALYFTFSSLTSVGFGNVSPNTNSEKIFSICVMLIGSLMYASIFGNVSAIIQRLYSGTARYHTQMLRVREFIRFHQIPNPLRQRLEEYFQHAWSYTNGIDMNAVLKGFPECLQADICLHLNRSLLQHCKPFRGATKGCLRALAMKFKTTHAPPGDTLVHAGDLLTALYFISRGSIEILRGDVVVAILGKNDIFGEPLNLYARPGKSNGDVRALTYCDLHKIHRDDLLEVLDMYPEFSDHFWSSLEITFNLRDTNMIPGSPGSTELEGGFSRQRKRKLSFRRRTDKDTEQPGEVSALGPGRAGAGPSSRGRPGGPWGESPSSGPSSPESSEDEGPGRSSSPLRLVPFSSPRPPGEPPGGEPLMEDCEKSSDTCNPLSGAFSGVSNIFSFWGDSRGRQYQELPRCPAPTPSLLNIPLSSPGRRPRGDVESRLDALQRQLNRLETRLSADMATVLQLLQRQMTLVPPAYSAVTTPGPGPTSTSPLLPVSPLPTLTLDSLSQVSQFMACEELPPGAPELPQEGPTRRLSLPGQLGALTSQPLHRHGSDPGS
# ASSAY_OVERVIEW: Inhibition of human ERG by Isotopic flux assay
Reported pIC50 is given for each of the following compounds.
// pIC50 is dimensionless: -log10 of concentration (M)

Cc1cc(C)cc(NC(=O)c2cncc(-c3ccc(C#N)cc3)c2)c1 = 4.80

// query # get_value(readout= pIC50, system= Voltage-gated inwardly rectifying potassium channel KCNH2 (Homo sapiens)) for `O=C(NCc1cccnc1OCC(F)(F)F)c1cncc(-c2ccc(Cl)cc2)c1`
// result 4.72

----------
# SYSTEM: P2X2/P2X3 heterotrimeric receptor (Homo sapiens, UniProt P56373+Q9UBL9)
# Sequence (Q9UBL9 whole entry): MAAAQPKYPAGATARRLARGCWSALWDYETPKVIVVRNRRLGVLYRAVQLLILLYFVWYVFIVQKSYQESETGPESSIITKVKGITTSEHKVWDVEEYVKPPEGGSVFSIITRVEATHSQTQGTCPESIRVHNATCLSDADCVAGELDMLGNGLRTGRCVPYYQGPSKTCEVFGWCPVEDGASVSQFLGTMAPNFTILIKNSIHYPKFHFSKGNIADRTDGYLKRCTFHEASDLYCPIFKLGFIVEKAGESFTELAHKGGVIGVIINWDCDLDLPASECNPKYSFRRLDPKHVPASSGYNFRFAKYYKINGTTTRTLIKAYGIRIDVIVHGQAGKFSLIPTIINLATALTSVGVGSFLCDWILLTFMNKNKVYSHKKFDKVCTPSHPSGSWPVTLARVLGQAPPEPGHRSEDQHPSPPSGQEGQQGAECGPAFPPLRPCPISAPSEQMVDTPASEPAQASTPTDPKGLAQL
# Sequence (P56373 whole entry): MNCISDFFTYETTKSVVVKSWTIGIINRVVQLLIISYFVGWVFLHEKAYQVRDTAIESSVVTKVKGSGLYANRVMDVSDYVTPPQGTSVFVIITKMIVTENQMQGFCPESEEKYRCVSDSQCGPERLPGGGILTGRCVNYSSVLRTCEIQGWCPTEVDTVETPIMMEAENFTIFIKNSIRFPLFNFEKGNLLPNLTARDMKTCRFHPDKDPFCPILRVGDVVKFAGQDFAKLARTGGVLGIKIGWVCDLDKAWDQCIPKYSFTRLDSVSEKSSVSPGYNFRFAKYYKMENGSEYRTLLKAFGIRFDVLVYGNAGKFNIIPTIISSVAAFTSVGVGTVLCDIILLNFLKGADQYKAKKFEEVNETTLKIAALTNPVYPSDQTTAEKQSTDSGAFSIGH
# ASSAY_OVERVIEW: Inhibition of P2X2/3 receptor
pIC50: −log10 of the molar value.
ATTRIBUTE_MEASURED: pIC50

Cc1cc(C)cc(NC(=O)c2cncc(-c3ccc(C#N)cc3)c2)c1 = < 5.00

// query Consider the compound shown here: `O=C(NCc1cccnc1OCC(F)(F)F)c1cncc(-c2ccc(Cl)cc2)c1` What is its recorded pIC50?
// result < 5.00

----------
# SYSTEM: Sodium channel protein type 2 subunit alpha (Homo sapiens, UniProt Q99250)
# ASSAY_OVERVIEW: Inhibition of human NaV1.2 by electrophysiology
ATTRIBUTE_MEASURED: log10(IC50) (log10 of the value in nM)
On a log10 scale: recorded IC50, unit nM.

Study these solved cases before continuing.
O=C(NCc1ccccc1)c1cncc(-c2ccc(Cl)cc2)c1 = 3.28
O=C(NCc1ccccc1N1CCCCC1)c1cncc(-c2ccc(Cl)cc2)c1 = 1.70
O=C(NCc1cccnc1OCC(F)(F)F)c1cncc(-c2ccc(Cl)cc2)c1 = 3.45

// query Provide the documented log10(IC50) with Sodium channel protein type 2 subunit alpha (Homo sapiens, UniProt Q99250) as the system for `Cc1ccccc1CNC(=O)c1cncc(-c2ccc(Cl)cc2)c1`
// result 2.04

// query Cool, now `O=C(NCc1ccccc1Cl)c1cncc(-c2ccc(Cl)cc2)c1`
// result 3.08

// query What about `O=C(NCc1cccnc1N1CCCCC1)c1cncc(-c2ccc(Cl)cc2)c1` ?
// result 1.85

// query Repeat for the following compound: `O=C(NCc1cccnc1N1CCOCC1)c1cncc(-c2ccc(Cl)cc2)c1`
// result 3.20

// query Follow-up entry: `CCOc1ncccc1CNC(=O)c1cncc(-c2ccc(Cl)cc2)c1`
// result 2.83

// query Further, for `O=C(NCc1cccnc1Cl)c1cncc(-c2ccc(Cl)cc2)c1` ?
// result 4.26

// query Then `O=C(NCc1ccccc1N1CCOCC1)c1cncc(-c2ccc(Cl)cc2)c1` ?
// result 2.08

----------
The entries below are paired with their reported Kp.
# ASSAY_OVERVIEW: Ratio of drug level in brain to plasma in rat
# Assay type: ADME, cell-free
# SETTINGS: read-out: BPR
# output: bare number, no unit

Cc1cc(C)cc(NC(=O)c2cncc(-c3ccc(C#N)cc3)c2)c1 = 1.3

// query Bench note: what Kp did `O=C(NCc1cccnc1OCC(F)(F)F)c1cncc(-c2ccc(Cl)cc2)c1` show?
// result 1

----------
Reported IC50 values follow for various molecules
# SYSTEM: Sodium channel protein type 10 subunit alpha (Homo sapiens)
# ASSAY_OVERVIEW: Inhibition of human NaV1.8 by electrophysiology
Enter your answer as a number in nM; do not include the unit.

Cc1cc(C)cc(NC(=O)c2ccnc(-c3ccc(OC(F)(F)F)cc3)c2)c1 = 780
Cc1cc(C)cc(NC(=O)c2nsc(-c3ccc(OC(F)(F)F)cc3)n2)c1 = 8

Kindly review the next molecule as well.
// query Request the reported IC50 associated with `O=C(NCc1cccnc1N1CCOCC1)c1cncc(-c2ccc(Cl)cc2)c1`
// result 87

----------
# SYSTEM: Sodium channel protein type 10 subunit alpha (Rattus norvegicus)
# Sequence (Q62968 whole entry): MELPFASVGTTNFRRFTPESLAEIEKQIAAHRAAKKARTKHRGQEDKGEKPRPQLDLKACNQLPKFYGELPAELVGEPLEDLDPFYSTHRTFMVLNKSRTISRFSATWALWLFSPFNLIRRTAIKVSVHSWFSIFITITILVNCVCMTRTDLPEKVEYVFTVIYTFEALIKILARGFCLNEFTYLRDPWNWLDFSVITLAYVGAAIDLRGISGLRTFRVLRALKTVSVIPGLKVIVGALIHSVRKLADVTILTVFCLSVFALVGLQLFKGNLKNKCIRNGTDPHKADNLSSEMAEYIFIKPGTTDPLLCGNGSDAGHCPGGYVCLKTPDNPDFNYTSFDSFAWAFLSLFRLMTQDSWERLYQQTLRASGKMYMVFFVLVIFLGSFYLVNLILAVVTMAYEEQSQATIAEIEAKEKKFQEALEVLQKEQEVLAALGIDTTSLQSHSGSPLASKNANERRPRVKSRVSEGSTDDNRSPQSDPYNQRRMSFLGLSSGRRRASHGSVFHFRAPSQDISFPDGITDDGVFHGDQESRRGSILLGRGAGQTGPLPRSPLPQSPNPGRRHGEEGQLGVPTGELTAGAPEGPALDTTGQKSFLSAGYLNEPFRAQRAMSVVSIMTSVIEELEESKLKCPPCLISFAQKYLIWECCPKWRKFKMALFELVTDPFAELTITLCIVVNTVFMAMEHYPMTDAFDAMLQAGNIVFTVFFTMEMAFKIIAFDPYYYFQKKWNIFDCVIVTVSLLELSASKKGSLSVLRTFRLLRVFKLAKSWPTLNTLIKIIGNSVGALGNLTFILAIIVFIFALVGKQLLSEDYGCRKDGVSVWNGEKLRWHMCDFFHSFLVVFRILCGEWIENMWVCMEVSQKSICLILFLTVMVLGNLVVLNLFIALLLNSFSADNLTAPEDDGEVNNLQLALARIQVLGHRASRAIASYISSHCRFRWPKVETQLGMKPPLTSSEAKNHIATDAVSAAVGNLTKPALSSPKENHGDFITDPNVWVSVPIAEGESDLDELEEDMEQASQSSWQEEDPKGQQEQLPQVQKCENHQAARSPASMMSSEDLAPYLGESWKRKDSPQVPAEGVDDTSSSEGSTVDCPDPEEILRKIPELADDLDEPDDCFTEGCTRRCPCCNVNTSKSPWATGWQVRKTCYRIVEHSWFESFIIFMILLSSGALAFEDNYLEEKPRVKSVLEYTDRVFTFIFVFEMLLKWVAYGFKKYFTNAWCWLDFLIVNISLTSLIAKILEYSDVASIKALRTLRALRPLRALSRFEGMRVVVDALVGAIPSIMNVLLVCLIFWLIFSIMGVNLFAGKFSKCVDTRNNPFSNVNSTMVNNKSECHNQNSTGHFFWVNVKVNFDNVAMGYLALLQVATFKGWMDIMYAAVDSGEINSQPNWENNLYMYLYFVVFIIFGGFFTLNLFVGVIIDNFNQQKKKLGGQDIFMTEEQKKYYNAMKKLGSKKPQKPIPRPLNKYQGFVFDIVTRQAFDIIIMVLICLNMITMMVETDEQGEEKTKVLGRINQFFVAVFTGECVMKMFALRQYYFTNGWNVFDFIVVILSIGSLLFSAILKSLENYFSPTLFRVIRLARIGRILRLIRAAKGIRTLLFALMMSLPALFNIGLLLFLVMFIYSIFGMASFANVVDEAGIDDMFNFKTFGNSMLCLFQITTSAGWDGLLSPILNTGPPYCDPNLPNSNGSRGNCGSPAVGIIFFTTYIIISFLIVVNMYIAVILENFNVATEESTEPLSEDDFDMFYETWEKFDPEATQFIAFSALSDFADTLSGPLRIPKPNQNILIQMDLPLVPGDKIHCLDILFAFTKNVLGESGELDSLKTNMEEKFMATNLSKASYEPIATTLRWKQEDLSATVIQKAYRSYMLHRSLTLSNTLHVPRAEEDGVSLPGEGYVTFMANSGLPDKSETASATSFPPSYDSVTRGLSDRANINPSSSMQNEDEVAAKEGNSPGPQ
# ASSAY_OVERVIEW: Inhibition of tetrodotoxin-resistant NaV1.8 in rat DRG neuron by electrophysiology
pIC50: −log10 of the molar value.
Response key: rule met means pIC50 >= 7; rule not met means pIC50 < 7.

Example entries begin here.
Cc1cc(C)cc(NC(=O)c2coc(-c3ccc(OC(F)(F)F)cc3)n2)c1 = rule not met
Cc1ccccc1CNC(=O)c1cncc(-c2ccc(Cl)cc2)c1 = rule met
O=C(NCc1ccccc1N1CCCCC1)c1cncc(-c2ccc(Cl)cc2)c1 = rule met
O=C(NCc1cccnc1N1CCCCC1)c1cncc(-c2ccc(Cl)cc2)c1 = rule met

Now, please, on to the next compound.
// query Does pIC50 meet or surpass 7 for `Cc1cc(C)cc(NC(=O)c2csc(-c3ccc(OC(F)(F)F)cc3)n2)c1` ?
// result rule not met
